B1: TPR 5TU (parent)
chain: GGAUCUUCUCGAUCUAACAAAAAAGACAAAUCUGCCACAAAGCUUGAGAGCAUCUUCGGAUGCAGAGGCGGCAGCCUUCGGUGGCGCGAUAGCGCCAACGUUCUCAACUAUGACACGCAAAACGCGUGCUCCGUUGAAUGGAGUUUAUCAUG

Variants of: B1
Assay: polymerase ribozyme fitness, log enrichment relative to wild type (log ratio); higher = more active; in vitro selection for triplet polymerase activity
Fewer inactive variants are shown than the library holds.
readoutKind: polymerase ribozyme fitness (log ratio)
The response must contain the number and no unit.

Report measured polymerase ribozyme fitness (log ratio); entry is C51U C85U
-0.8

Report measured polymerase ribozyme fitness (log ratio); entry is A22U C99G C116U
-0.689

Report measured polymerase ribozyme fitness (log ratio); entry is A122G G143A
-1.03

Report measured polymerase ribozyme fitness (log ratio); entry is A22G G117A
1.13

Report measured polymerase ribozyme fitness (log ratio); entry is A16C C38U G50A C95G C116G
-4.14

Report measured polymerase ribozyme fitness (log ratio); entry is U4A G48U C57G C93U G136A U146G
-2.55

Report measured polymerase ribozyme fitness (log ratio); entry is G83A A150C
-3.77

Report measured polymerase ribozyme fitness (log ratio); entry is U56A G58A C103A C125A
-0.231

Report measured polymerase ribozyme fitness (log ratio); entry is G50U C87U
-1.51

Report measured polymerase ribozyme fitness (log ratio); entry is G50U G83A A97U A98U
0.0748

Report measured polymerase ribozyme fitness (log ratio); entry is A40U A60C C72U G84U
-2.77

Report measured polymerase ribozyme fitness (log ratio); entry is A12G A91U C105G A106U
-4.11

Report measured polymerase ribozyme fitness (log ratio); entry is C10U A12C G34A G92C
-4.16

Report measured polymerase ribozyme fitness (log ratio); entry is C35U U82C
0.243

Report measured polymerase ribozyme fitness (log ratio); entry is U7G C96U
-2.17

Report measured polymerase ribozyme fitness (log ratio); entry is C5A C72U C85U C95U
-0.0103

Report measured polymerase ribozyme fitness (log ratio); entry is G58A C149A
-3.67

Report measured polymerase ribozyme fitness (log ratio); entry is A20G A26U
-2.24

Report measured polymerase ribozyme fitness (log ratio); entry is U44A C93U C99A U111G A138G G152U
-3.36

Report measured polymerase ribozyme fitness (log ratio); entry is A89C A107C
-4.06

Report measured polymerase ribozyme fitness (log ratio); entry is C57U G124U G128U
-3.76

Report measured polymerase ribozyme fitness (log ratio); entry is U6G A17U A60G C93A A98U
-1.75

Report measured polymerase ribozyme fitness (log ratio); entry is C99U A115C
-1.19

Report measured polymerase ribozyme fitness (log ratio); entry is U111A G124A U135C
-3.76

Report measured polymerase ribozyme fitness (log ratio); entry is A21U C75G G86A U101C
-4.03

Report measured polymerase ribozyme fitness (log ratio); entry is U6G C18G C36U C96G A98G
-2.92

Report measured polymerase ribozyme fitness (log ratio); entry is G50A C93U A142U
-3.71

Report measured polymerase ribozyme fitness (log ratio); entry is C51U G84A G117C U135A
-0.541

Report measured polymerase ribozyme fitness (log ratio); entry is C27G C76A
-3.63

Report measured polymerase ribozyme fitness (log ratio); entry is G46U A120C
-0.32

Report measured polymerase ribozyme fitness (log ratio); entry is C51A C96U
-1.91

Report measured polymerase ribozyme fitness (log ratio); entry is A41U C54U C96A
-2.16

Report measured polymerase ribozyme fitness (log ratio); entry is G46U C85A
-2.02

Report measured polymerase ribozyme fitness (log ratio); entry is A60C G92U
-0.296

Report measured polymerase ribozyme fitness (log ratio); entry is A138C U144G
-3.7

Report measured polymerase ribozyme fitness (log ratio); entry is C85G G133C
-2.86

Report measured polymerase ribozyme fitness (log ratio); entry is A52G G136U A142G
-3.58

Report measured polymerase ribozyme fitness (log ratio); entry is C87G C99U C116G
-3.37

Report measured polymerase ribozyme fitness (log ratio); entry is A37C G86C
-3.09

Report measured polymerase ribozyme fitness (log ratio); entry is C85U C118U A142U
-1.02

Report measured polymerase ribozyme fitness (log ratio); entry is C54A C105G U130C
-2.7

Report measured polymerase ribozyme fitness (log ratio); entry is A41U G80U U101C
-4.09

Report measured polymerase ribozyme fitness (log ratio); entry is U31C A98U U134A
-1.41

Report measured polymerase ribozyme fitness (log ratio); entry is U56A G126U
0.137

Report measured polymerase ribozyme fitness (log ratio); entry is G34A A120C
0.113

Report measured polymerase ribozyme fitness (log ratio); entry is A52C U55A C72U A98U
-3.14

These data points were gathered from the RNAGym collection of RNA variant scans (doi:10.1073/pnas.2313332121).
